- System: Caenorhabditis elegans
- test.method.notes: Primary screen, infrared-based (WMicroTracker ONE) C. elegans L4 motility assay at 40 µM
- Format: cell-based, Caenorhabditis elegans (Bristol N2)
- settings: primary screen at 40 µM, C. elegans L4, WMicroTracker ONE
# Lookup of reported C. elegans Mean motility vs. DMSO control (%) keyed by entry
Give just the number in %; leave the unit off.

// below: answered molecules
{"molecule": "O=C(Nc1ncccc1O)c1ccc(N2CCOCC2)nc1", "assay.result": 99.33}
{"molecule": "CCC1=C(c2ccc(C)cc2)S(=O)(=O)N=C1N1CCC(C(=O)NCCN2CCCC[C@@H]2C)CC1", "assay.result": 104.04}

Suppose we examine the molecule CN1CCCC1CCO[C@](C)(c1ccccc1)c1ccc(Cl)cc1 (some centres unmarked) ; what C. elegans Mean motility vs. DMSO control (%) value has been reported?
98.88

Which C. elegans Mean motility vs. DMSO control (%) value is on record for CC(C)(C)NC(=O)[C@@H]1CN(Cc2cccnc2)CCN1C[C@@H](O)C[C@@H](Cc1ccccc1)C(=O)N[C@H]1c2ccccc2C[C@H]1O ?
103.91

Data request, read-out C. elegans Mean motility vs. DMSO control (%), for NS(=O)(=O)c1cc2c(cc1Cl)N=CNS2(=O)=O
96.35

Please look up its C. elegans Mean motility vs. DMSO control (%): O=C(NC1CCN(CCOc2ccc(Cl)cc2)CC1)c1c[nH]c2ccncc2c1=O
99.33

Could you tell me which C. elegans Mean motility vs. DMSO control (%) is on file for COc1ccc(Cc2nccc3cc(OC)c(OC)cc23)cc1OC ?
96.9

Recorded C. elegans Mean motility vs. DMSO control (%) of CO[C@@H](C(=O)N1Cc2[nH]nc(NC(=O)c3ccc(N4CCN(C)CC4)cc3)c2C1)c1ccccc1 , please.
100.25

Which measured C. elegans Mean motility vs. DMSO control (%) value corresponds to CC(=O)N1CCN(c2ccc(OC[C@@H]3CO[C@@](Cn4ccnc4)(c4ccc(Cl)cc4Cl)O3)cc2)CC1 ?
113.2

Please look up its C. elegans Mean motility vs. DMSO control (%): O[C@@H](c1cc(C(F)(F)F)nc2c(C(F)(F)F)cccc12)[C@H]1CCCCN1
108.37

Can you look up the measured C. elegans Mean motility vs. DMSO control (%) of OC(Cn1cncn1)(Cn1cncn1)c1ccc(F)cc1F for me?
103.8

// C. elegans Mean motility vs. DMSO control (%) lookup, key: CC[C@@H](C(=O)[C@@H](C)[C@@H](O)[C@H](C)[C@@H]1O[C@@H]([C@@H](CC)C(=O)O)CC[C@@H]1C)[C@H]1O[C@]2(C=C[C@@H](O)[C@]3(CC[C@@](C)([C@H]4CC[C@](O)(CC)[C@H](C)O4)O3)O2)[C@H](C)C[C@@H]1C
96.95

// returns reported C. elegans Mean motility vs. DMSO control (%) for input CC(=O)Oc1ccccc1C(=O)Nc1ncc([N+](=O)[O-])s1
112.67

Reported C. elegans Mean motility vs. DMSO control (%) for CCC(C)n1ncn(-c2ccc(N3CCN(c4ccc(OCC5COC(Cn6cncn6)(c6ccc(Cl)cc6Cl)O5)cc4)CC3)cc2)c1=O (centres unmarked) : what is it?
97.65

Name the recorded C. elegans Mean motility vs. DMSO control (%) for CC(C)C[C@H](NC(=O)[C@@H](NC(=O)c1cccc(-c2ccccc2)n1)[C@@H](C)O)B(O)O .
97.97

Query (molecule): Cc1ccc(NC(=O)c2ccc(CN3CCN(C)CC3)cc2)cc1Nc1nccc(-c2cccnc2)n1 ; field requested: C. elegans Mean motility vs. DMSO control (%)
98.37

For the molecule CNCc1[cH-]ccc1CNc1ccnc2cc(Cl)ccc12.[Fe+2].c1cc[cH-]c1 , what C. elegans Mean motility vs. DMSO control (%) is on record?
102.88

----------
pEC50 for assorted molecules
- Test system: Caenorhabditis elegans
- test.method.notes: Concentration response C. elegans L4 motility assay (WMicroTracker ONE), EC50
- Type: cell-based, Caenorhabditis elegans (Bristol N2)
- settings: Caenorhabditis elegans; C. elegans L4, after 12 h; read-out: EC50 (motility)
Here pEC50 is given on a logarithmic scale as minus log10 of the concentration in mol/L.

{"molecule": "CCOCn1c(-c2ccc(Cl)cc2)c(C#N)c(Br)c1C(F)(F)F [chlorfenapyr]", "assay.result": 5.78}

Would you kindly look at the next entry?
Look up pEC50 for this molecule: CCc1nn(C)c(C(=O)NCc2ccc(Oc3ccc(C)cc3)cc2)c1Cl [tolfenpyrad]
6.02

----------
- test.method.notes: HEK293 cytotoxicity assay (resazurin)
- Type: cell-based, Human
- settings: human, HEK293 cells; HEK293 cell viability after 48 h; read-out: CC50
readout.name: CC50 at 48 h

Which value of CC50 at 48 h has been reported for COc1ccc2c(c1)c(CC(=O)O)c(C)n2C(=O)c1ccc(Cl)cc1 [indomethacin, reference compound] in the records?
> 100 µM

----------
- test.method.notes: HEK293 cytotoxicity assay (resazurin)
- Format: cell-based, Human
- settings: human; HEK293 cell viability after 48 h; read-out: CC50
This section presents compounds with their documented CC50 at 48 h values.
Phrase the answer as number then unit, nothing more needed.

Consider the following illustrative entries.
{"compound": "CO[C@H]1C[C@H](O[C@@H]2/C(C)=C/C[C@@H]3C[C@@H](C[C@]4(CC[C@H](C)[C@@H](C5CCCCC5)O4)O3)OC(=O)[C@@H]3C=C(C)/C(=N/O)[C@H]4OC/C(=C\\C=C\\[C@@H]2C)[C@]43O)O[C@@H](C)[C@@H]1O [selamectin, reference compound]", "CC50 at 48 h": "9.88 µM"}
{"compound": "CCOCn1c(-c2ccc(Cl)cc2)c(C#N)c(Br)c1C(F)(F)F [chlorfenapyr]", "CC50 at 48 h": "20.9 µM"}

Please examine the following record next.
Fill in: CC50 at 48 h of CCc1nn(C)c(C(=O)NCc2ccc(Oc3ccc(C)cc3)cc2)c1Cl [tolfenpyrad] is ___
33.8 µM

----------
- Tested on: Caenorhabditis elegans
- test.method.notes: Primary screen, infrared-based (WMicroTracker ONE) C. elegans L4 motility assay at 40 µM
- Format: cell-based, Caenorhabditis elegans (Bristol N2)
- settings: primary screen at 40 µM; hit if motility < 25%

{"compound": "CO[C@H]1C[C@H](O[C@@H]2/C(C)=C/C[C@@H]3C[C@@H](C[C@]4(CC[C@H](C)[C@@H](C5CCCCC5)O4)O3)OC(=O)[C@@H]3C=C(C)/C(=N/O)[C@H]4OC/C(=C\\C=C\\[C@@H]2C)[C@]43O)O[C@@H](C)[C@@H]1O [selamectin, reference compound]", "C. elegans NOTES (HIT)": "HIT"}
{"compound": "CO/N=C1\\C[C@]2(C[C@@H]3C[C@@H](C/C=C(\\C)C[C@@H](C)/C=C/C=C4\\CO[C@@H]5[C@H](O)C(C)=C[C@@H](C(=O)O3)[C@]45O)O2)O[C@H](/C(C)=C/C(C)C)[C@H]1C [moxidectin, reference compound]", "C. elegans NOTES (HIT)": "HIT"}

----------
- Test system: HEK293 cells
- test.method.notes: HEK293 cytotoxicity assay (resazurin)
- Assay type: cell-based, Human
- settings: HEK293 cell viability after 48 h
readout.name: CC50
Please make sure the unit comes right after the number.

# get_value(readout='CC50', item= O=C(Nc1ccc(Cl)c(C(F)(F)F)c1)Nc1ccc(Cl)c(C(F)(F)F)c1 )
453 nM
